systemName: hERG (Kv11.1, KCNH2) (Homo sapiens)
assayComment: in vitro
Description: MMV: Malaria Box compounds were tested for inhibition of the human ether a go-go related gene (hERG), Kv11.1 channel, using IonWorks 384-well patch clamp electrophysiology at 11.1uM (3 independent assay plates up to 12 cells per concentration).
Entry flag: Yes if inhibition at 11.1 µM reaches 40%; No if it does not.

Some solved entries appear below for comparison.
| compound | class |
| --- | --- |
| Cc1ccc(N2C3c4ccccc4N(S(=O)(=O)c4ccc(C)cc4)C2c2ccccc2N3S(=O)(=O)c2ccc(C)cc2)cc1 | No |
| O=C(NC1CCN(Cc2ccccc2)CC1)c1cc(-c2cccnc2)nc2ccc(Cl)cc12 | Yes |
| Cc1cc(N2CCCC2)nc(Nc2ccc(NC(=O)CCc3ccccc3)cc2)n1 | Yes |

Kindly review the next compound as well.
Check the entry "COc1ccc(C=C2SC(=N)N(c3ccccc3OC)C2=O)cc1" : does inhibition at 11.1 µM equal or exceed 40%?
Yes

---

Measured inhibition at 11.1 µM, listed per entry for reference.
systemName: UniProt Q12809
assayComment: in vitro
Please reply with the bare figure in % and do not write the unit itself.

Illustrative cases are given below, each with its answer.
| compound | observedValue |
| --- | --- |
| Oc1ccccc1CNCC12CC3CC(CC(C3)C1)C2 | 41 |
| Cc1sc2ncnc(Sc3nc4ccccc4[nH]3)c2c1C | 16 |
| CCOC(=O)C1=C(c2ccccc2)N=c2sc(=Cc3cc(C)n(-c4ccc(F)cc4)c3C)c(=O)n2C1c1cccc(OC)c1OC (centres undefined) | 11 |
| COc1ccc(-c2nc(N3CCN(C(=O)C4CCCCC4)CC3)c3c4c(sc3n2)CCCC4)cc1 | 17 |
| CCCCNc1nc(NC(C)(C)C)nc(NC(C)(C)C)n1 | 1 |

Look up inhibition at 11.1 µM: "CC1=C(CC(=O)c2cccc([N+](=O)[O-])c2)C(=O)c2ccccc2C1=O"
17

Can you handle "COc1ccccc1C(=O)ON=C(N)Cc1cccc2ccccc12" next?
34

Please answer likewise for "CCOC(=O)c1cnc2ccc(Cl)cc2c1NCCCN(C)C"
85

What do you get for "CCN(CC)c1ccc(NC(=O)c2cccs2)cc1" ?
1

Can you check CCCCCCOC(=O)C1=C(C)NC(=O)NC1c1ccccc1F (centres undefined) next?
1

Can you check "CN(C)c1ccc(C(O)(c2ccc(N(C)C)cc2)c2ccc(N(C)C)cc2)cc1" next?
103

Same for "CCOc1ccc(-c2nc(NC(=O)c3cccc(S(C)(=O)=O)c3)sc2C)cc1"
29

Same again, this time with "Oc1ccc(-c2nc(-c3ccc4oc5ccc(-c6[nH]c(-c7ccc(O)cc7)nc6-c6ccccc6)cc5c4c3)c(-c3ccccc3)[nH]2)cc1"
54

Try this compound next: "CCN1CCN(c2c(C(=O)c3ccccc3)cnc3cc(OC)c(OC)cc23)CC1"
40

What would you report for "COc1cccc(Cn2c(Oc3ccccc3)nc3c2c(=O)n(C)c(=O)n3C)c1" ?
26

What do you have for COc1ccc(NC(=O)C2c3ccccc3C(=O)N(CC(C)C)C2c2cccs2)cc1 (centres undefined) ?
18

And for "CCCCN(CCCC)S(=O)(=O)c1ccc(NC(=O)c2ccco2)cc1" ?
30

Also need "CCn1c(CN2CCN(Cc3ccccc3)CC2)nc2cc(NC(=O)c3cccs3)ccc21" , thanks.
100

Field entry: "COc1cc(C(=O)ON=C(N)Cc2cccc3ccccc23)cc(OC)c1OC"
89

---

systemName: hERG (Kv11.1, KCNH2) (Homo sapiens, UniProt Q12809)
Sequence (Q12809 whole entry): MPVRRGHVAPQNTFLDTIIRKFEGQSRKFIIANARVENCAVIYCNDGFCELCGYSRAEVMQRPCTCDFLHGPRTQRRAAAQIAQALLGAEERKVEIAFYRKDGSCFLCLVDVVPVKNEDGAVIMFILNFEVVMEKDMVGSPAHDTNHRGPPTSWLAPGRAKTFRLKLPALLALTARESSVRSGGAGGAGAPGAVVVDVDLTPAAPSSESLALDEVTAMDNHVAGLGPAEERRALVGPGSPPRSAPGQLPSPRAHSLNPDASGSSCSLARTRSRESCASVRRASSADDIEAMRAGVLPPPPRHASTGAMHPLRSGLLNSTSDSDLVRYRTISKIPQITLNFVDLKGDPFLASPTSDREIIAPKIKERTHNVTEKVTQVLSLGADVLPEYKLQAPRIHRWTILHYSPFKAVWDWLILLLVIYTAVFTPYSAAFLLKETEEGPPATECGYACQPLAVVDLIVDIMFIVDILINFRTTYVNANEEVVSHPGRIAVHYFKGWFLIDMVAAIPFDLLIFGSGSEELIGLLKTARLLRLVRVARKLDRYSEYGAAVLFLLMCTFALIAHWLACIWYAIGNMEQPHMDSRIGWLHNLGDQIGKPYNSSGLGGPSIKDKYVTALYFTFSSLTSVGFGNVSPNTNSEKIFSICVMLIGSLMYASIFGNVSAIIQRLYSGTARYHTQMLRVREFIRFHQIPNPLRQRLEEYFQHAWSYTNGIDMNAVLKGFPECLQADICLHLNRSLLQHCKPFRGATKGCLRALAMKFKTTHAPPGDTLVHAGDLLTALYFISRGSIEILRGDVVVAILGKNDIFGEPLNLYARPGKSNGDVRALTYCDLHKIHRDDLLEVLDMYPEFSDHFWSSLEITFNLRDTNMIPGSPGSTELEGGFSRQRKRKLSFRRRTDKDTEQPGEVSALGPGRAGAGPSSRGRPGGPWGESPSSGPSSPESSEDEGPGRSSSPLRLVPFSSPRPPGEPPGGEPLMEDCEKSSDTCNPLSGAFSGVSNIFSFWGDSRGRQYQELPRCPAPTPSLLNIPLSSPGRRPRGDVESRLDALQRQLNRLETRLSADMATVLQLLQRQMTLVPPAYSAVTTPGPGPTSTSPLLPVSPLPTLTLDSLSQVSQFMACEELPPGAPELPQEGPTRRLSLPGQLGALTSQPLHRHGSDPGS
assayComment: in vitro
Description: MMV: Malaria Box compounds were tested for inhibition of the human ether a go-go related gene (hERG), Kv11.1 channel, using IonWorks 384-well patch clamp electrophysiology at 1.1uM (3 independent assay plates up to 12 cells per concentration).
measure: inhibition at 1.1 µM (%)
Express your answer in %, writing the number without its unit.

Observe how each entry below is paired with its result.
| compound | systemName | inhibition at 1.1 µM, % |
| --- | --- | --- |
| CCC(c1ccccc1)c1nn2c(-c3cccs3)nnc2s1 (stereo not drawn) | hERG (Kv11.1, KCNH2) (Homo sapiens, UniProt Q12809) | 8 |
| Cc1ccc(C)c(-c2csc(Nc3ccc(C)c(C)c3)n2)c1 | hERG (Kv11.1, KCNH2) (Homo sapiens, UniProt Q12809) | 57 |
| COCCNCC(O)Cn1c2ccc(Cl)cc2c2cc(Cl)ccc21 (stereo not drawn) | hERG (Kv11.1, KCNH2) (Homo sapiens, UniProt Q12809) | 14 |

# get_value(readout= inhibition at 1.1 µM, system= hERG (Kv11.1, KCNH2) (Homo sapiens, UniProt Q12809)) for O=C(NCC1Cc2cccc(-c3ccncc3)c2O1)c1csc2c1CCCC2 (stereo not drawn)
13

And then "COc1cc(CNCCc2ccc(Cl)cc2)cc(OC)c1O" , what is it?
16

Please give the result for OC(CNCc1ccccc1)Cn1c2ccccc2c2ccccc21 (stereo not drawn) too.
41

Field entry: CN(C)c1ccc(C(O)(c2ccc(N(C)C)cc2)c2ccc(N(C)C)cc2)cc1 [METHYLROSANILINE]
48

Try this compound too: "O=C(NC1CCN(Cc2ccccc2)CC1)c1cc(-c2ccncc2)nc2ccc(Cl)cc12"
14
